Origin of values: PubChem BioAssay (NCI)

Test system: U251 CNS
Assay: NCI-60 one-dose screen, 48 h (100 = growth as untreated, 0 = no growth, -100 = all killed)
Conditions: 10 µM unless noted
About 83,000 compounds went through this panel and 20% of them were active in at least one assay; those are over-represented in the sample as a whole.
growth class ranges: low = under 40%, intermediate = from 40% up to 90%, high = 90% and over

| compoundStructure | testedTarget | className |
| --- | --- | --- |
| Cc1nn(-c2ccc(Br)cc2)c2nc(CCl)[nH]c(=O)c12 | U251 CNS | high |
| COc1ccccc1/C=C/C(=O)c1nnn(-c2ccc(C(=O)O)cc2)c1C | U251 CNS | intermediate |
| CN1CCN(c2ccc(C(=O)/C=C/c3ccc(Cl)c(C(F)(F)F)c3)cc2)CC1 | U251 CNS | low |
| C=CCn1c(SCC(=O)c2ccc(OC)cc2)nnc1-c1ccc(OC)cc1 | U251 CNS | high |
| O=C1c2c(c3c4ccc(Br)cc4oc3c3[nH]c4ccccc4c23)C(=O)N1CCO | U251 CNS | low |
| CCNC(=O)Oc1ccc(/C(=C(/C)c2ccc(Cl)cc2)c2ccc(OCCN(C)C)cc2)cc1 | U251 CNS | intermediate |
| CC(=O)Oc1ccc(CCN2C(=O)CSC2=S)cc1 | U251 CNS | high |
| O=C(/C=C1\C=CN(CCCCCCF)c2ccccc21)n1ccc2ccccc21 | U251 CNS | high |
| CN1CCN(c2nc(-c3csc(-c4ccncc4)n3)cc3ccccc23)CC1 | U251 CNS | intermediate |
| COc1ccc(/C(C)=C(\c2ccc(Cl)cc2)c2ccc(OCCN)cc2)cc1 | U251 CNS | intermediate |

input: Kindly state the category for this compound: COc1ccc(-c2nc3cc(Cl)c(Cl)cc3n2CC(=O)N=Nc2c(O)[nH]c3ccccc23)cc1
output: intermediate

input: Let us now turn to CCCCCCNC(=O)Oc1ccc(/C(=C(\C)c2ccc(OC)cc2)c2ccc(OCCN(C)C)cc2)cc1
output: intermediate

input: Now give it for COc1ccc(-c2cc(-c3cccc4ccccc34)n3c(n2)nc2ccccc23)cc1 too.
output: low

input: Also, Oc1ccc(CSc2nnc(-c3ccc(Cl)cc3)o2)c2cccnc12 please.
output: low

input: What do we get for CCCCCc1ccc(S(=O)(=O)N(C(C)=O)c2cccc(-c3csc(N(CCN4CCN(C)CC4)C(C)=O)n3)c2)cc1 ?
output: low

* * *

System: UACC-62 melanoma
Assay: NCI-60 one-dose screen, 48 h (100 = growth as untreated, 0 = no growth, -100 = all killed)
Conditions: 10 µM unless noted
Compounds without any hit were thinned out: in the full panel of roughly 83,000, 20% have a hit. Activity calls are given as the source filed them. The calls were made as follows: active = growth percent below 10; inactive = the rest.
Can you tell me growth for the items I'm about to list?

A selection of reference data follows.
| compoundStructure | testedTarget | endpoint | assayResult |
| --- | --- | --- | --- |
| Oc1ccccc1-c1nnc(SCc2ccc(O)c3ncccc23)o1 | UACC-62 melanoma | growth | 30.2% (inactive) |
| CC(=O)NC(C)(C)C(=O)N[C@@H](C)C(=O)NC(C)(C)C(=O)N[C@@H](C)C(=O)NC(C)(C)C(=O)N[C@@H](C)C(=O)N[C@@H](CCC(N)=O)C(=O)NC(C)(C)C(=O)N[C@H](C(=O)NC(C)(C)C(=O)NCC(=O)N[C@@H](CC(C)C)C(=O)NC(C)(C)C(=O)N1CCC[C@H]1C(=O)N[C@H](C(=O)NC(C)(C)C(=O)NC(C)(C)C(=O)N[C@@H](CCC(N)=O)C(=O)N[C@@H](CCC(N)=O)C(=O)N[C@H](CO)CC1CCCCC1)C(C)C)C(C)C | UACC-62 melanoma | growth | 2.45% [5 µM] (active) |
| O=C(CN1C(=O)CSC1=O)Nc1ccc(C(=O)/C=C/c2cc3ccccc3nc2Cl)cc1 | UACC-62 melanoma | growth | 74% (inactive) |

Your task in this section: give growth for each listed record.
1. CSc1ccc(/C(=N/N=C(N)N)c2ccccc2)cc1
2. Cn1cc(-c2nn3cc(-c4cccnc4)nc3s2)c2ccccc21

output:
1. 44% (inactive)
2. 31.1% (inactive)

* * *

Test system: U251 CNS
Assay: NCI-60 one-dose screen, 48 h
Conditions: 10 µM unless noted
The panel holds about 83,000 compounds, 20% with a hit somewhere; the sample as a whole holds those more often. Activity calls are given as the source filed them. How the source made its calls: active means growth percent below 10; inactive means the rest.
# output must be one of Yes = active, No = inactive

Observe how each entry below is paired with its result.
| molecule | testedTarget | className |
| --- | --- | --- |
| O=C1[C@H]2Cc3c([nH]c4ccccc34)[C@@H](c3ccc(Cl)cc3)N2C(=O)CN1C1CCN(Cc2c(Cl)cccc2Cl)CC1 | U251 CNS | No |
| COCCOc1ccc(-c2csc(NC(C)=O)n2)cc1NS(=O)(=O)c1cccc2c(N(C)C)cccc12 | U251 CNS | No |
| CCCC(=O)NC(c1cccnc1)c1ccc2c(C)ccnc2c1O (stereo not drawn) | U251 CNS | No |
| COC(=O)c1c(C(=O)OC)c2n(CC(=O)Nc3cccc4cccnc34)c3ccccc3n2c1C(=O)c1ccc(C)cc1 | U251 CNS | No |
| CCOc1c(C#N)c(Nc2ccc(S(N)(=O)=O)cc2)c(C#N)c2nnc(C)n12 | U251 CNS | No |

input: Tell me the recorded outcome of this test for O=C1c2c(c3c4cc(Br)ccc4[nH]c3c3ccc4ccccc4c23)C(=O)N1CCN1CCCCC1 .
output: Yes

input: Request: Nc1n[nH]c2cccc(C#Cc3cccc(NC(=O)c4cccc(OC(F)(F)F)c4)c3)c12
output: No

* * *

Test system: T-47D breast
Experiment: NCI-60 one-dose screen, 48 h
Conditions: 10 µM unless noted
Description: Growth inhibition of the T-47D human tumor cell line is measured as a screen for anti-cancer activity. Cells are grown in 96 well plates and exposed to the test compound for 48 hours. Compounds are tested at a single concentration, which is 10^-5 M for most compounds. The reported endpoint is percent growth (GI% or GIPRCNT), where numbers from 0 - 100% represent growth inhibition, and numbers from -100% - 0 represent cell death. For example, a value of 40 represents 60% growth inhibition. […]
Compounds without any hit were thinned out: in the full panel of roughly 83,000, 20% have a hit. Active and inactive are the calls of the source. The calls were made as follows: active = growth percent below 10; inactive = the rest.
Choose one outcome from this list and give only that: Yes for active, No for inactive

Look over these answered cases.
| molecule | testedTarget | className |
| --- | --- | --- |
| Cn1c2ccc(Br)cc2c2c3c(c4c5cc(F)ccc5oc4c21)C(=O)N(O)C3=O | T-47D breast | No |
| Oc1ccc(CSc2nnc(-c3ccncc3)n2-c2ccccc2)c2cccnc12 | T-47D breast | No |
| CCOC(=O)Nc1cccc(-n2cnc3cc(-c4ccc(O)cc4)ccc32)c1 | T-47D breast | No |
| COc1ccc(NC(=O)Cn2cc(CN3C(=O)c4ccc([N+](=O)[O-])cc4C3=O)nn2)cc1 | T-47D breast | No |
| CC1OC(O[C@@H]2C(O)C(CO)OC(O[C@H]3COC(O[C@H]4CC[C@]5(C)[C@H]6CC[C@]78OC[C@@]9(CC[C@](C)(C=O)C[C@H]97)[C@H](O)C[C@@]8(C)[C@]6(C)CC[C@H]5C4(C)C)[C@@H](OC4OC(CO)[C@@H](O)[C@@H](O)[C@@H]4O)[C@@H]3O)[C@H]2OC2OC[C@@H](O)[C@@H](O)[C@@H]2O)[C@@H](O)[C@@H](O)[C@H]1O (stereo not given in full) | T-47D breast | No |

input: Recorded test call requested for CN(c1ccc(Br)cc1)S(=O)(=O)c1ccc(-c2cnc(C3CC3)o2)cc1
output: No

input: Also need CCOC(=O)c1c(NCC(=O)Nc2cccc(Cl)c2)sc2c1CCCC2 , thanks.
output: No

input: What do you get for COc1cc(O)c2c(c1)/C=C/C[C@H](O)[C@H](O)C(=O)/C=C\C[C@H](C)OC2=O ?
output: Yes

* * *

System: MDA-MB-435 melanoma
Test: NCI-60 one-dose screen, 48 h
Conditions: 10 µM unless noted
About 83,000 compounds went through this panel and 20% of them were active in at least one assay; those are over-represented in the sample as a whole. Calls of active or inactive are those of the source. How the source made its calls: active means growth percent below 10; inactive means the rest.
Classes to choose from: active, inactive

| molecule | className |
| --- | --- |
| C#C[C@]1(O)CC[C@H]2[C@@H]3CC=C4c5sc(Nc6ccc(OC)nc6)nc5CC[C@]4(C)[C@H]3CC[C@@]21C | inactive |
| CCCCCCNC(=O)Oc1ccc(/C(=C(/C)c2ccc(OC)cc2)c2ccc(OCCN3CCCC3)cc2)cc1 | inactive |
| O=C1Nc2ccc(Cl)cc2/C1=C/c1ccc(OCc2ccc(Br)cc2F)cc1 | inactive |

input: What classification did CC(C)=CCc1c2c(c(O)c3c1O[C@]14C(=C[C@@H]5C[C@H]1C(C)(C)O[C@@]4(C/C=C(/C)C(=O)O)C5=O)C3=O)CC(O)C(C)(C)O2 (stereo partly drawn) end up with in this test?
output: active

input: Check CC(=O)NC(C)(C)C(=O)N1CCC[C@H]1C(=O)NC(C)(C)C(=O)N[C@@H](C)C(=O)NC(C)(C)C(=O)NC(C)(C)C(=O)N[C@@H](CCC(N)=O)C(=O)NC(C)(C)C(=O)N[C@H](C(=O)NC(C)(C)C(=O)NCC(=O)N[C@@H](CC(C)C)C(=O)NC(C)(C)C(=O)N1CCC[C@H]1C(=O)N[C@H](C(=O)NC(C)(C)C(=O)NC(C)(C)C(=O)N[C@@H](CCC(N)=O)C(=O)N[C@@H](CCC(N)=O)C(=O)N[C@H](CO)Cc1ccccc1)C(C)C)C(C)C too.
output: inactive

input: What do you get for C[C@H]1[C@H](C)CC[C@]2(COC(=O)c3cccnc3)CC[C@]3(C)C(=CC[C@@H]4[C@@]5(C)CCCNC(C)(C)[C@@H]5CC[C@]43C)[C@H]12 ?
output: inactive
